experiment: self-splicing fitness, log relative to wild type (ln ratio); higher = more splicing; Tetrahymena group I intron in knt gene, E. coli kanamycin selection, DiMSum; sequences stand for … in CUCUCU…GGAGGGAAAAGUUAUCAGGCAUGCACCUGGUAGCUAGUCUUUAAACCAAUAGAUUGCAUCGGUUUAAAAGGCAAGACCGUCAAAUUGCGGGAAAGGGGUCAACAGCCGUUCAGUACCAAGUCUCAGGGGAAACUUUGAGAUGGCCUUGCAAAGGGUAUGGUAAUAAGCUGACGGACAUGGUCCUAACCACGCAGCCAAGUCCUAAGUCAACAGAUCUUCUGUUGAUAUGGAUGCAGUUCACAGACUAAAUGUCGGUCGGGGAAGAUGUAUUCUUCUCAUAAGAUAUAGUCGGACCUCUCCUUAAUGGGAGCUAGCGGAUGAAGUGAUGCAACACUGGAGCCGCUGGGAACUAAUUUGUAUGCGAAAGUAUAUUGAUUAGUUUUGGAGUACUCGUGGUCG; conditions: 37 °C;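 also: selection with 25 µg/mL kanamycin versus none on LB agar overnight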
Is self-splicing fitness (ln) at least -2? Then yes (1). If not, no (0).

Inquiry: Hi team, for ACACAGCAAUAUUACGCAAA , is the recorded self-splicing fitness (ln) at or above -2?
Reply text: yes (1)

Inquiry: Hi team, for AUCGAGCAAUAUUACGCUCA , is the recorded self-splicing fitness (ln) at or above -2?
Reply text: yes (1)

Inquiry: Hi team, for GAAGAGCAAUAUUACGAUAU , is the recorded self-splicing fitness (ln) at or above -2?
Reply text: yes (1)

Inquiry: Hi team, for GCGAAGCAAUAUUACGAUUG , is the recorded self-splicing fitness (ln) at or above -2?
Reply text: yes (1)

Inquiry: Hi team, for UCCCAGCAAUAUUACGAUCA , is the recorded self-splicing fitness (ln) at or above -2?
Reply text: yes (1)

Inquiry: Hi team, for GCUCAGCAAUAUUACGCUCU , is the recorded self-splicing fitness (ln) at or above -2?
Reply text: yes (1)

Inquiry: Hi team, for CACUAGCAAUAUUACGUGUU , is the recorded self-splicing fitness (ln) at or above -2?
Reply text: no (0)

Inquiry: Hi team, for CCCCAGCAAUAUUACGGGGU , is the recorded self-splicing fitness (ln) at or above -2?
Reply text: no (0)

Inquiry: Hi team, for GACUAGCAAUAUUACGCUGG , is the recorded self-splicing fitness (ln) at or above -2?
Reply text: no (0)

Inquiry: Hi team, for CACAAGCAAUAUUACGGAUG , is the recorded self-splicing fitness (ln) at or above -2?
Reply text: yes (1)

Inquiry: Hi team, for UUUGAGCAAUAUUACGGGGA , is the recorded self-splicing fitness (ln) at or above -2?
Reply text: no (0)

Inquiry: Hi team, for AGCCAGCAAUAUUACGAACG , is the recorded self-splicing fitness (ln) at or above -2?
Reply text: no (0)

Inquiry: Hi team, for CCUAAGCAAUAUUACGAGAU , is the recorded self-splicing fitness (ln) at or above -2?
Reply text: no (0)

Inquiry: Hi team, for AUGUAGCAAUAUUACGCUAU , is the recorded self-splicing fitness (ln) at or above -2?
Reply text: no (0)

Inquiry: Hi team, for GAACAGCAAUAUUACGCCGA , is the recorded self-splicing fitness (ln) at or above -2?
Reply text: yes (1)

Inquiry: Hi team, for UGCAAGCAAUAUUACGGACG , is the recorded self-splicing fitness (ln) at or above -2?
Reply text: yes (1)

Inquiry: Hi team, for GACCAGCAAUAUUACGUGGA , is the recorded self-splicing fitness (ln) at or above -2?
Reply text: yes (1)

Inquiry: Hi team, for GGAAAGCAAUAUUACGACCU , is the recorded self-splicing fitness (ln) at or above -2?
Reply text: yes (1)

Inquiry: Hi team, for AAGGAGCAAUAUUACGCCUG , is the recorded self-splicing fitness (ln) at or above -2?
Reply text: yes (1)

Inquiry: Hi team, for ACGUAGCAAUAUUACGGACA , is the recorded self-splicing fitness (ln) at or above -2?
Reply text: yes (1)

Inquiry: Hi team, for GUUGAGCAAUAUUACGACUC , is the recorded self-splicing fitness (ln) at or above -2?
Reply text: yes (1)

Inquiry: Hi team, for AUAAAGCAAUAUUACGUACA , is the recorded self-splicing fitness (ln) at or above -2?
Reply text: yes (1)

Inquiry: Hi team, for GUAAAGCAAUAUUACGGUUC , is the recorded self-splicing fitness (ln) at or above -2?
Reply text: yes (1)

Inquiry: Hi team, for UUUAAGCAAUAUUACGCCCU , is the recorded self-splicing fitness (ln) at or above -2?
Reply text: yes (1)

Inquiry: Hi team, for GUCAAGCAAUAUUACGGCGG , is the recorded self-splicing fitness (ln) at or above -2?
Reply text: no (0)

Inquiry: Hi team, for GUACAGCAAUAUUACGGCGC , is the recorded self-splicing fitness (ln) at or above -2?
Reply text: yes (1)

Inquiry: Hi team, for ACCUAGCAAUAUUACGUGUA , is the recorded self-splicing fitness (ln) at or above -2?
Reply text: yes (1)

Inquiry: Hi team, for GGCGAGCAAUAUUACGAAAG , is the recorded self-splicing fitness (ln) at or above -2?
Reply text: no (0)

Inquiry: Hi team, for AGGUAGCAAUAUUACGUUAG , is the recorded self-splicing fitness (ln) at or above -2?
Reply text: no (0)

Inquiry: Hi team, for AGCAAGCAAUAUUACGGACC , is the recorded self-splicing fitness (ln) at or above -2?
Reply text: yes (1)

Inquiry: Hi team, for UCCUAGCAAUAUUACGCAGA , is the recorded self-splicing fitness (ln) at or above -2?
Reply text: yes (1)

Inquiry: Hi team, for CACUAGCAAUAUUACGACAC , is the recorded self-splicing fitness (ln) at or above -2?
Reply text: yes (1)

Inquiry: Hi team, for AGUGAGCAAUAUUACGGCAA , is the recorded self-splicing fitness (ln) at or above -2?
Reply text: yes (1)

Inquiry: Hi team, for GACGAGCAAUAUUACGGAGC , is the recorded self-splicing fitness (ln) at or above -2?
Reply text: no (0)

Inquiry: Hi team, for CCUCAGCAAUAUUACGCAUG , is the recorded self-splicing fitness (ln) at or above -2?
Reply text: yes (1)

Inquiry: Hi team, for UCACAGCAAUAUUACGUGCU , is the recorded self-splicing fitness (ln) at or above -2?
Reply text: no (0)

Inquiry: Hi team, for AGACAGCAAUAUUACGAUGA , is the recorded self-splicing fitness (ln) at or above -2?
Reply text: yes (1)

Inquiry: Hi team, for CGACAGCAAUAUUACGGCCG , is the recorded self-splicing fitness (ln) at or above -2?
Reply text: yes (1)

Inquiry: Hi team, for AUCAAGCAAUAUUACGUCCA , is the recorded self-splicing fitness (ln) at or above -2?
Reply text: yes (1)

Inquiry: Hi team, for UCAGAGCAAUAUUACGGCAC , is the recorded self-splicing fitness (ln) at or above -2?
Reply text: no (0)

Inquiry: Hi team, for UACCAGCAAUAUUACGAACA , is the recorded self-splicing fitness (ln) at or above -2?
Reply text: yes (1)

Inquiry: Hi team, for UAUCAGCAAUAUUACGAUAC , is the recorded self-splicing fitness (ln) at or above -2?
Reply text: yes (1)

Inquiry: Hi team, for GAGUAGCAAUAUUACGUUGU , is the recorded self-splicing fitness (ln) at or above -2?
Reply text: yes (1)

Inquiry: Hi team, for AGGUAGCAAUAUUACGAUAC , is the recorded self-splicing fitness (ln) at or above -2?
Reply text: yes (1)

Inquiry: Hi team, for AGGGAGCAAUAUUACGGAAC , is the recorded self-splicing fitness (ln) at or above -2?
Reply text: no (0)

Inquiry: Hi team, for GAUUAGCAAUAUUACGCAAC , is the recorded self-splicing fitness (ln) at or above -2?
Reply text: yes (1)

Inquiry: Hi team, for CUGCAGCAAUAUUACGCGCG , is the recorded self-splicing fitness (ln) at or above -2?
Reply text: yes (1)

Inquiry: Hi team, for GUUAAGCAAUAUUACGUUUG , is the recorded self-splicing fitness (ln) at or above -2?
Reply text: yes (1)

Inquiry: Hi team, for CACUAGCAAUAUUACGAAGG , is the recorded self-splicing fitness (ln) at or above -2?
Reply text: yes (1)

Inquiry: Hi team, for UUCCAGCAAUAUUACGCGCC , is the recorded self-splicing fitness (ln) at or above -2?
Reply text: yes (1)

Inquiry: Hi team, for GUGUAGCAAUAUUACGUUGG , is the recorded self-splicing fitness (ln) at or above -2?
Reply text: no (0)

Inquiry: Hi team, for UCACAGCAAUAUUACGAACA , is the recorded self-splicing fitness (ln) at or above -2?
Reply text: yes (1)

Inquiry: Hi team, for CGAUAGCAAUAUUACGCAUA , is the recorded self-splicing fitness (ln) at or above -2?
Reply text: yes (1)

Inquiry: Hi team, for GGGUAGCAAUAUUACGAACU , is the recorded self-splicing fitness (ln) at or above -2?
Reply text: yes (1)

Inquiry: Hi team, for CUUCAGCAAUAUUACGAUAA , is the recorded self-splicing fitness (ln) at or above -2?
Reply text: yes (1)

Inquiry: Hi team, for GAGUAGCAAUAUUACGGUCU , is the recorded self-splicing fitness (ln) at or above -2?
Reply text: yes (1)

Inquiry: Hi team, for CAUGAGCAAUAUUACGCACG , is the recorded self-splicing fitness (ln) at or above -2?
Reply text: yes (1)

Inquiry: Hi team, for CUAUAGCAAUAUUACGUUGU , is the recorded self-splicing fitness (ln) at or above -2?
Reply text: no (0)

Inquiry: Hi team, for GGAAAGCAAUAUUACGAGGA , is the recorded self-splicing fitness (ln) at or above -2?
Reply text: yes (1)

Inquiry: Hi team, for GGCGAGCAAUAUUACGCUAU , is the recorded self-splicing fitness (ln) at or above -2?
Reply text: yes (1)

Inquiry: Hi team, for UGUCAGCAAUAUUACGUCAU , is the recorded self-splicing fitness (ln) at or above -2?
Reply text: yes (1)

Inquiry: Hi team, for UACAAGCAAUAUUACGGAUC , is the recorded self-splicing fitness (ln) at or above -2?
Reply text: yes (1)

Inquiry: Hi team, for UUUGAGCAAUAUUACGAAGU , is the recorded self-splicing fitness (ln) at or above -2?
Reply text: no (0)

Inquiry: Hi team, for UGCCAGCAAUAUUACGAGGU , is the recorded self-splicing fitness (ln) at or above -2?
Reply text: no (0)

Inquiry: Hi team, for AACCAGCAAUAUUACGGCCA , is the recorded self-splicing fitness (ln) at or above -2?
Reply text: yes (1)
